- MEASUREMENT_DESCRIPTION: Metabolic stability in mouse liver microsomes assessed as half life at […] measured up to 60 mins in presence of NADPH by HPLC-MS/MS analysis
- Type: ADME, Microsome

{"columns": ["STRUCTURE_STRING", "MEASUREMENT_UNIT", "half-life"],
 "data": [
  ["COc1ccc(N2CCN(CCn3c(=O)cnc4c(-c5ccc(C)o5)nc(N)nc43)CC2)c(F)c1", "min", 5.1],
  ["COc1ccc(N2CCN(CCn3c(=O)cnc4c(-c5ccc(C)o5)nc(N)nc43)[C@@H](C)C2)c(F)c1", "min", 38.5]
]}
